Provide the reported AC50 of each item.

## Task Identify the measured AC50 of C1COC(NC(C2CC2)C2CC2)=N1 for Growth hormone secretagogue receptor type 1 (Homo sapiens, UniProt Q92847).
## Result > 30 µM

## Task Identify the measured AC50 of CC(C(O)c1ccc(O)cc1)N1CCC(Cc2ccccc2)CC1 (stereo not drawn) for Growth hormone secretagogue receptor type 1 (Homo sapiens, UniProt Q92847).
## Result > 30 µM

## Task Notebook: pull reported AC50 for Growth hormone secretagogue receptor type 1 (Homo sapiens, UniProt Q92847), entry CCC[C@@H]1C[C@@H](C(=O)N[C@@H]([C@H]2O[C@H](SC)[C@H](O)[C@@H](O)[C@H]2O)[C@H](C)Cl)N(C)C1
## Result > 30 µM

## Task Under Growth hormone secretagogue receptor type 1 (Homo sapiens, UniProt Q92847): AC50 value of CCCCN1CCCCC1C(=O)Nc1c(C)cccc1C (stereo not drawn) ?
## Result > 30 µM

## Task Recorded AC50 for Cc1c(C(=O)Nc2ccc(N3C[C@@H](C)O[C@@H](C)C3)nc2)cccc1-c1ccc(OC(F)(F)F)cc1 with Growth hormone secretagogue receptor type 1 (Homo sapiens, UniProt Q92847), please?
## Result > 30 µM

## Task Find the measured AC50: item CCCCC(C)(O)C/C=C/[C@H]1[C@H](O)CC(=O)[C@@H]1CCCCCCC(=O)OC (stereo partly drawn) , target or system Growth hormone secretagogue receptor type 1 (Homo sapiens, UniProt Q92847). Note: assay procedure not described here.
## Result > 30 µM

## Task Find AC50 (Growth hormone secretagogue receptor type 1 (Homo sapiens, UniProt Q92847)) for the entry O=C1NCCN1CCN1CCC(c2cn(-c3ccc(F)cc3)c3ccc(Cl)cc23)CC1
## Result 28 µM

## Task API: value(readout= AC50, system= Growth hormone secretagogue receptor type 1 (Homo sapiens, UniProt Q92847), query= CCCCCCC(C)(C)c1cc(O)c2c(c1)OC(C)(C)C1CCC(=O)CC21 (stereo not drawn) ); note: assay procedure not described here
## Result > 30 µM

## Task # get_value(readout= AC50, system= Growth hormone secretagogue receptor type 1 (Homo sapiens, UniProt Q92847)) for CNC(=O)c1cc(Oc2ccc(NC(=O)Nc3ccc(Cl)c(C(F)(F)F)c3)cc2)ccn1; note: assay procedure not described here
## Result > 30 µM

## Task I'm curious: which AC50 was measured for CN1CCc2cccc3c2[C@H]1Cc1ccc(O)c(O)c1-3 tested on Growth hormone secretagogue receptor type 1 (Homo sapiens, UniProt Q92847)?; note: assay procedure not described here
Sequence (Q92847 whole entry): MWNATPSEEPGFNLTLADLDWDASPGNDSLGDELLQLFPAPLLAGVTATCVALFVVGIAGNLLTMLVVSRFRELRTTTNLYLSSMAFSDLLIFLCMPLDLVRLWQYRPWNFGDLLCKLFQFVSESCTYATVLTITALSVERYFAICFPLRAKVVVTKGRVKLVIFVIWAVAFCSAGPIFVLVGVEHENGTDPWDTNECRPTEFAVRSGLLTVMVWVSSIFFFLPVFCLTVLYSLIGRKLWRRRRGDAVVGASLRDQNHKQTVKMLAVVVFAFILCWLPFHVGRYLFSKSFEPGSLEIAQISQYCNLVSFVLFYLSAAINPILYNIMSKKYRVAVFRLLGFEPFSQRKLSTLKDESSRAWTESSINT
## Result > 30 µM

## Task Please provide the recorded AC50 for CCCCOc1cc(C(=O)NCCN(CC)CC)c2ccccc2n1 , tested on Growth hormone secretagogue receptor type 1 (Homo sapiens, UniProt Q92847). Note: assay procedure not described here.
## Result 15.8 µM

## Task Under Growth hormone secretagogue receptor type 1 (Homo sapiens, UniProt Q92847): AC50 value of C[C@H]1O[C@H](O[C@H]2[C@H](O)[C@@H](O)[C@@H](O[C@H]3[C@H](O)[C@@H](O)C(O)O[C@@H]3CO)O[C@@H]2CO)[C@H](O)[C@@H](O)[C@@H]1N[C@H]1C=C(CO)[C@@H](O)[C@H](O)[C@H]1O (stereo partly drawn) ?
## Result > 30 µM

## Task Record lookup: for Growth hormone secretagogue receptor type 1 (Homo sapiens, UniProt Q92847), what AC50 belongs to COc1c(N2CCNC(C)C2)c(F)cc2c(=O)c(C(=O)O)cn(C3CC3)c12 (stereo not drawn) ?
## Result > 10 µM

## Task Provide value of AC50 for this record tested with Growth hormone secretagogue receptor type 1 (Homo sapiens, UniProt Q92847): OCc1cc([C@@H](O)CNCCCCCCOCCOCc2c(Cl)cccc2Cl)ccc1O
## Result 13 µM

## Task Lookup: AC50 / Growth hormone secretagogue receptor type 1 (Homo sapiens, UniProt Q92847) / CCCS(=O)(=O)Nc1ccc(F)c(C(=O)c2c[nH]c3ncc(-c4ccc(Cl)cc4)cc23)c1F
## Result > 30 µM

## Task Lookup: AC50 / Growth hormone secretagogue receptor type 1 (Homo sapiens, UniProt Q92847) / NS(=O)(=O)c1cc(-c2nnn[nH]2)c(NCc2cccs2)cc1Cl [AZOSEMIDE]
## Result > 30 µM

## Task Please tell me: AC50 of [H]/N=C(/N)c1ccc(NCc2nc3cc(C(=O)N(CCC(=O)O)c4ccccn4)ccc3n2C)cc1 , system Growth hormone secretagogue receptor type 1 (Homo sapiens, UniProt Q92847)?; note: assay procedure not described here
## Result > 30 µM

## Task Identify the measured AC50 of C[C@@H]1O[C@@H]1P(=O)(O)O for Growth hormone secretagogue receptor type 1 (Homo sapiens, UniProt Q92847).
## Result > 10 µM

## Task Item Cc1cc(-c2ccccc2)nnc1NCCN1CCOCC1 with Growth hormone secretagogue receptor type 1 (Homo sapiens, UniProt Q92847) - AC50?
## Result > 30 µM

## Task Query for Growth hormone secretagogue receptor type 1 (Homo sapiens, UniProt Q92847): what AC50 does the record show for C#C[C@]1(O)CC[C@H]2[C@@H]3CCC4=CCCC[C@@H]4[C@H]3CC[C@@]21C ?
## Result > 30 µM

## Task Test system Growth hormone secretagogue receptor type 1 (Homo sapiens, UniProt Q92847); read-out AC50; what value for CCN(CC)CCOC(=O)c1ccc(N)cc1 ?; note: assay procedure not described here
## Result > 30 µM

## Task Please tell me: AC50 of CCc1ccc(CCOc2ccc(CC3SC(=O)NC3=O)cc2)nc1 (stereo not drawn) , system Growth hormone secretagogue receptor type 1 (Homo sapiens, UniProt Q92847)?; note: assay procedure not described here
## Result > 30 µM

## Task Record C[C@H]1C[C@@H]2[C@H]([C@@H](O)C[C@@]3(C)[C@H]2CC[C@]3(O)C(=O)COC(=O)CCC(=O)O)[C@@]2(C)C=CC(=O)C=C12 [METHYLPREDNISOLONE HEMISUCCINATE] : what is its AC50 with Growth hormone secretagogue receptor type 1 (Homo sapiens, UniProt Q92847)?
## Result > 30 µM

## Task AC50 of CCCCCN(C)CCC(O)(P(=O)(O)O)P(=O)(O)O on Growth hormone secretagogue receptor type 1 (Homo sapiens, UniProt Q92847)?
## Result > 30 µM

## Task Growth hormone secretagogue receptor type 1 (Homo sapiens, UniProt Q92847) / AC50 / NC(CO)C(=O)NNCc1ccc(O)c(O)c1O (stereo not drawn) [BENSERAZIDE] : value?
## Result > 30 µM

## Task So what AC50 did CC[C@H](C)C(=O)O[C@H]1C[C@H](O)C=C2C=C[C@H](C)[C@H](CC[C@@H](O)C[C@@H](O)CC(=O)O)[C@H]21 get with Growth hormone secretagogue receptor type 1 (Homo sapiens, UniProt Q92847)?
## Result > 30 µM

## Task Give AC50 (Growth hormone secretagogue receptor type 1 (Homo sapiens, UniProt Q92847)) of the following compound: CC(C)(C(=O)c1cccnc1)c1cccnc1
## Result > 10 µM

## Task Item CCOC(=O)[C@H](CCc1ccccc1)N[C@H]1CCCN2CCC[C@@H](C(=O)O)N2C1=O with Growth hormone secretagogue receptor type 1 (Homo sapiens, UniProt Q92847) - AC50?
## Result > 30 µM

## Task For the record NC(=O)c1cnccn1 [PYRAZINAMIDE] , what value of AC50 is listed for Growth hormone secretagogue receptor type 1 (Homo sapiens, UniProt Q92847)?
## Result > 30 µM

## Task Given the entry COC(=O)[C@H]1[C@@H](OC(=O)c2ccccc2)C[C@@H]2CC[C@H]1N2C , what AC50 was observed with Growth hormone secretagogue receptor type 1 (Homo sapiens, UniProt Q92847)?
## Result > 30 µM

## Task Growth hormone secretagogue receptor type 1 (Homo sapiens, UniProt Q92847) / AC50 / NC[C@H]1CC[C@H](C(=O)O)CC1 : value?
## Result > 10 µM

## Task Request: AC50, test system Growth hormone secretagogue receptor type 1 (Homo sapiens, UniProt Q92847), entry CN1CC(=O)N2[C@H](c3ccc4c(c3)OCO4)c3[nH]c4ccccc4c3C[C@@H]2C1=O; note: assay procedure not described here
## Result > 30 µM

## Task Report AC50 for COC(=O)[C@@H]1CC2=CC(=O)CC[C@]2(C)[C@@]23O[C@@H]2C[C@@]2(C)[C@@H](CC[C@@]24CCC(=O)O4)[C@H]13 tested on Growth hormone secretagogue receptor type 1 (Homo sapiens, UniProt Q92847). Note: assay procedure not described here.
## Result > 30 µM

Origin of the recorded values: ChEMBL document CHEMBL5291721
